target: T1, Macaca fascicularis CD123 Fc-fusion protein (Macaca fascicularis); experiment: SPR Proteon XPR36, rat IgG captured, CD123-Fc analyte
T1 construct: also called cyno CD123-Fc
T1 sequence (chain, as listed by the source limits assumed): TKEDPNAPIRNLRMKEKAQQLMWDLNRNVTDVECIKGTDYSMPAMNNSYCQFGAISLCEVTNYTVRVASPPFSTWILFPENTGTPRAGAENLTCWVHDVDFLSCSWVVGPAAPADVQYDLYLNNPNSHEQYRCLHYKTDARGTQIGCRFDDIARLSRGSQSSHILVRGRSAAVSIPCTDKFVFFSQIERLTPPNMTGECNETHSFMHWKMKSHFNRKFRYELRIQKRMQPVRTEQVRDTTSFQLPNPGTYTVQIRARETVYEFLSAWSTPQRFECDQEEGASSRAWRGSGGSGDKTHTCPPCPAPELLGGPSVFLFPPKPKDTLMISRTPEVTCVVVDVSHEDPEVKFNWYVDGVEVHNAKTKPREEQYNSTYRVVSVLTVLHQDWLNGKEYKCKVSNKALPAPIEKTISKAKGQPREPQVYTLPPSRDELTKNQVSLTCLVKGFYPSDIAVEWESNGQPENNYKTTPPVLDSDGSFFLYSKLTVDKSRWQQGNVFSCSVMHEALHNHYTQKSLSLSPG
ASSAY READOUT: pKd
Scale for pKd: -log10 of concentration given in mol/L; no unit attached.

Supply reported pKd belonging to this binder: 5A5-B4 anti-CD123 rat IgG (hybridoma supernatant) (antibody, V domains shown, rat IgG; also called BFX - 5A5) VH: QIQIVQSGSDVTSTCNGCGTCYFSGFSLSTTGICVSWIRQPSGKGQEWLADFCWDDGKGYNPSLKNRLSISKDTSNNQVFLKITSVDTADTATYYCARRRVYYGIYFDYWGQGVMVTVSS VL: DIVMTQSPALAVSPGERVSISCRASNSVSTRMHWYQQKPGQQPKLLIYGASNLESGVPARFSGSGSGTDFTLTIDPVEADDIATYFCQQSWNDPLTFGSGTKLEIK
10.30

Supply reported pKd belonging to this binder: 3E3-D3 anti-CD123 rat IgG (hybridoma supernatant) (antibody, V domains shown, rat IgG; also called BFX - 3E3) VH: QVQLQESGPGLVQPSQTLSLTCTVSGFSLTTYDVHWVRQPPGKGLEWMGRIQNGGITDYNSALKSRLIISRDTSKSQVFLKMNSVQTEDTAMYFCAKTGSYFYAFDHWGQGTLVTVSS VL: QFVLTQPNSVSTNLGSTVKLSCKRNTGNIGSNYVNWYQQHEGRSPTTMIYRDDKRPDGVPDRFSGSIDRSSNSALLTINNVQTEDEADYFCQSYSSGINIIFGGGTKLTVL
9.92

Supply reported pKd belonging to this binder: 1E1-G5 anti-CD123 rat IgG (hybridoma supernatant) (antibody, V domains shown, rat IgG; also called BFX - 1E1) VH: QVQLQESGPTLVKPGDSVKMSCKAFGYTFTDHIIHWVKQSHGKSLEWIGYINPYSGGTNYNEKFKSKATLTVDKSSSTAYMEFSRLTSEDSAICYCALNYGSYYAMDAWGQGTSVTVSS VL: DIQMTQSPASLSASLGQTVTIECRPSEDIYSNLAWFQQKPGSSPQLLIYDANNLADGVPSRFSGSGSGTQYSLKINSLQSEDVASYFCQQYNKYPYTFGTGTKLELK
9.14

Origin of measurements: patent US20210292423A1
